system_under_test: Serine/threonine-protein phosphatase PP1-alpha catalytic subunit (Homo sapiens)
procedure_text: PP1 inhibitor potency on phosphorylase dephosphorylation, dose response, orthogonal assay for PP1 inhibitor probe project, biochemical, radiolabel, phosphorylase substrate, powder samples (AID 652112)
condition_set: purified PP1, 32P/33P-phosphorylase dephosphorylation, scintillation
Let's look at some compounds and their measured pIC50.
Units for pIC50: none; it is -log10 of a concentration expressed in mol/L.

Please review the following examples before continuing.
CCn1c2ccccc2c2cc(NC(=O)COC(=O)c3ccc(NC(=O)CC#N)cc3)ccc21 | 4.42
CN1CCN(C(c2ccccn2)c2cc(Cl)c3cccnc3c2O)CC1 (stereo not given) | 5.31
N#Cc1c(-c2ccc(Cl)cc2)cc(-c2cccs2)nc1SCC(=O)O | 4.66
COc1ccc(NC(=O)C2C3CCC(O3)C2C(=O)O)c(OC)c1 (stereo not given) | 4.72

Consider the record given below.
Asked: Fill in reported pIC50 for this entry: CCOC(=O)c1sc2nc3c(SCC(=O)O)cc(C(=O)c4cc(F)ccc4O)cn3c(=O)c2c1C
Given back: 5.07

The origin of these recorded values is PubChem BioAssay AID652112.
